Ref: patent US20210309739A1

Give measured Kd for each item. Keep answers brief.
# TESTED_SYSTEM: T1, empty G alphai1 protein (recombinant TST-Galphai1 protein, no nucleotide) (human, UniProt P63096 1-354)
# T1 construct: Same polypeptide as m14 and m15; also called empty G protein alpha; empty form of the G protein alpha; not shown: N-terminal TwinStreptag (TST) (IBA) tag and TEV linker
# T1 sequence (P63096 whole entry): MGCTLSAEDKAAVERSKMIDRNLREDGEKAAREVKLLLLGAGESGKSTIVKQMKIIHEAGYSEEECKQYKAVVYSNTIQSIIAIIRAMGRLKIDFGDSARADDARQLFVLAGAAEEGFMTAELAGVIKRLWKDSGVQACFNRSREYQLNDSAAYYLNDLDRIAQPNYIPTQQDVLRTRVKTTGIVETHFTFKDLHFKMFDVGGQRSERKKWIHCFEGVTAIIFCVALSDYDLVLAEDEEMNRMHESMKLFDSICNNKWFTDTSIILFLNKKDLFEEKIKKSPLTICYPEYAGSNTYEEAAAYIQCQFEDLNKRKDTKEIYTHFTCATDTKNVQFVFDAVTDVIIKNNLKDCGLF
# TEST_DETAILS: TR-FRET (HTRF) saturation binding; VH-d2 titrated on TST-Galphai1, empty form; mean Kd
Write the answer as a number in nM, unit excluded.

# input Sample VH G7 (VHH, labeled with the acceptor fluorescent probe d2 (site not stated), Made in E. coli; also called anti-Galphai VH antibody-d2) VHH: QVQLQESGGGLVQPGGSLRLSCAASGFTFSWYGMSWVRQAPGKGPEWVASISSRGITTDYAHSVKGRFTVSRDNTKNTLYLQMNSLKPEDTGVYYCTRVLWYDSGAYSLNDFWGQGTQVTVSS — what was its Kd?
# output 5

# input Sample VH E2 (VHH, labeled with the acceptor fluorescent probe d2 (site not stated), Made in E. coli; also called anti-Galphai VH antibody-d2) VHH: EVQLVESGGGLVQPGGSLRLSCIGSGYTFSSYAMAWVRQASGKGPEWVASISSRGITTDYAHSVKGRFTISRDNAKNTLYLHMNNLKPEDTALYYCTRVLWYENGLYSLNDFWGQGTQVTVSS — what was its Kd?
# output 2

# input Sample VH A10 (VHH, labeled with the acceptor fluorescent probe d2 (site not stated), Made in E. coli; also called anti-Galphai VH antibody-d2) VHH: EVQLVESGGGLVQPGGSLRLSCAASGLTYSDYAMSWVRQAAGKGPEWVASISSRGITTDYAHSVKGRFTVSRDNTKNTLYLQMNSLEPEDTAVYYCTTVSYWRYEYWGQGTQVTVSS — what was its Kd?
# output 1

# input Sample VH F2 (VHH, labeled with the acceptor fluorescent probe d2 (site not stated), Made in E. coli; also called anti-Galphai VH antibody-d2) VHH: EVQLVESGGGLVQPGGSLRLSCAASGFTFSSYAMSWVRQAAGKGPEWVASISSRGITTDYAHSVKGRFTVSRDNTKNTLYLQMNSLKPEDTALYYCVKGWMPTGWGQGTQVTVSS — what was its Kd?
# output 1
